Hi! I'm sharing some IC50 results obtained with JAK2 kinase domain (Homo sapiens).
Sequence (O60674 849-1124 limits assumed): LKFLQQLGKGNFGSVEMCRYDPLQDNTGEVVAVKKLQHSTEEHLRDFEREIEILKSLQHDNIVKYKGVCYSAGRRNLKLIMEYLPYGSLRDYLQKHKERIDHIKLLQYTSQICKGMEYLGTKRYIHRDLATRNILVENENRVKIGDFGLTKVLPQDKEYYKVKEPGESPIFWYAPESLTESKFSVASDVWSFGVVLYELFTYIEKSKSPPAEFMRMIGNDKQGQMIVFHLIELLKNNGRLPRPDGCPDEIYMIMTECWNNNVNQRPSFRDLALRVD
measurementLabel: IC50 (nM)

[[record]]
entrysmiles = "NC(=O)c1cc(-c2ccnc(N)n2)[nH]c1-c1cc(C(F)(F)F)ccc1Cl"
numericvalue = 8

[[record]]
entrysmiles = "NC(=O)c1cc(-c2ccnc(N)n2)[nH]c1-c1cc(Cl)ccc1Cl"
numericvalue = 12

[[record]]
entrysmiles = "CCc1ccc(C(F)(F)F)cc1-c1[nH]c(-c2ccnc(N)n2)cc1C(=O)NC"
numericvalue = 2

[[record]]
entrysmiles = "CCc1ccc(Cl)cc1-c1[nH]c(-c2ccnc(N)n2)cc1C(=O)NC"
numericvalue = 9

[[record]]
entrysmiles = "CCc1ccc(C(F)(F)F)cc1-c1[nH]c(-c2ccnc(N)n2)cc1C(N)=O"
numericvalue = 2


---

Readings of IC50 for the listed compounds
system: JAK2 dependent human megakaryoblastic leukemia cell line SET-2; test: Cell proliferation assay (CellTiter-Glo, 72 hours), SET-2; format: cell-based; conditions: Homo sapiens; SET-2 cells, 72 hours; read-out: SET-2 IC50
measurementLabel: IC50 (nM)

[[record]]
compound = "NC(=O)c1cc(-c2ccnc(N)n2)[nH]c1-c1cc(C(F)(F)F)ccc1Cl [Cmpd. 1]"
measurementlabel = "IC50"
numericvalue = 570

[[record]]
compound = "NC(=O)c1cc(-c2ccnc(N)n2)[nH]c1-c1cc(Cl)ccc1Cl [Cmpd. 2]"
measurementlabel = "IC50"
numericvalue = 700

[[record]]
compound = "CNC(=O)c1cc(-c2ccnc(N)n2)[nH]c1-c1cc(C(F)(F)F)ccc1Cl [Cmpd. 39]"
measurementlabel = "IC50"
numericvalue = 630

[[record]]
compound = "CCNC(=O)c1cc(-c2ccnc(N)n2)[nH]c1-c1cc(Cl)ccc1CC [Cmpd. 36]"
measurementlabel = "IC50"
numericvalue = 610

[[record]]
compound = "CCc1ccc(C(F)(F)F)cc1-c1[nH]c(-c2ccnc(N)n2)cc1C(=O)NC [Cmpd. 51]"
measurementlabel = "IC50"
numericvalue = 310

[[record]]
compound = "CCc1ccc(Cl)cc1-c1[nH]c(-c2ccnc(N)n2)cc1C(=O)NC [Cmpd. 35]"
measurementlabel = "IC50"
numericvalue = 490

[[record]]
compound = "CCc1ccc(C(F)(F)F)cc1-c1[nH]c(-c2ccnc(N)n2)cc1C(N)=O [Cmpd. 16]"
measurementlabel = "IC50"
numericvalue = 390

